FYI, the data here is from paper PMC11605156.

# ASSAY_PROTOCOL: in vivo
# TEST_CONDITIONS: male, SD, rat, in vivo, po
MEASUREMENT_LABEL: AUC(0-inf) (ng·h/mL)

1. CCOc1ccc(NC(C)=O)cc1; 352
2. O=C(O)Cc1ccccc1Nc1c(Cl)cccc1Cl; 2350
3. Cc1ncc2n1-c1ccc(Cl)cc1C(c1ccccc1F)=NC2; 2340
4. CC(NC(C)(C)C)C(=O)c1cccc(Cl)c1 (stereo not shown); 5090

----------
# TEST_SYSTEM: CYP2C9 (Homo sapiens, UniProt P11712)
# Sequence (P11712 whole entry): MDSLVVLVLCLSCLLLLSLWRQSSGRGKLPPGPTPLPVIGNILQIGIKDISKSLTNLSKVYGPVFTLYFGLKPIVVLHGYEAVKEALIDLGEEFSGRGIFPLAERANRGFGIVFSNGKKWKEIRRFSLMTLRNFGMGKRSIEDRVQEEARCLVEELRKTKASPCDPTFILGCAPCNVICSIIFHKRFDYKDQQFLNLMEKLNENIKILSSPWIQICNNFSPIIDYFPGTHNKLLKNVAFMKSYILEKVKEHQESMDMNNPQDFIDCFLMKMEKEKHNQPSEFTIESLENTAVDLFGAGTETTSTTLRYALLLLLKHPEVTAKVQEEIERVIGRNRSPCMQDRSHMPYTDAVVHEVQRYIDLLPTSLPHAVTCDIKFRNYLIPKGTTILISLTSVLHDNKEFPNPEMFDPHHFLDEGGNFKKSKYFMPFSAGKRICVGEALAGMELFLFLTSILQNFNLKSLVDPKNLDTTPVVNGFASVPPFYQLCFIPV
# ASSAY_PROTOCOL: CYP2C9 inhibition, probe/drug metabolism in human liver microsomes
# TEST_CONDITIONS: IC50 against metabolism of valsartan mediated by CYP2C9, substrate valsartan 30 μM, 30 min
pIC50: −log10 of the molar value.
MEASUREMENT_LABEL: pIC50

1. CC(CCC(O)C(C)(O)CO)C1CCC2(C)C3=C(C(=O)CC12C)C1(C)CCC(=O)C(C)(C)C1CC3 (stereo not shown); 4.85
